Biological target: Peroxisome proliferator-activated receptor gamma (Homo sapiens, UniProt P37231)
Sequence (P37231 whole entry): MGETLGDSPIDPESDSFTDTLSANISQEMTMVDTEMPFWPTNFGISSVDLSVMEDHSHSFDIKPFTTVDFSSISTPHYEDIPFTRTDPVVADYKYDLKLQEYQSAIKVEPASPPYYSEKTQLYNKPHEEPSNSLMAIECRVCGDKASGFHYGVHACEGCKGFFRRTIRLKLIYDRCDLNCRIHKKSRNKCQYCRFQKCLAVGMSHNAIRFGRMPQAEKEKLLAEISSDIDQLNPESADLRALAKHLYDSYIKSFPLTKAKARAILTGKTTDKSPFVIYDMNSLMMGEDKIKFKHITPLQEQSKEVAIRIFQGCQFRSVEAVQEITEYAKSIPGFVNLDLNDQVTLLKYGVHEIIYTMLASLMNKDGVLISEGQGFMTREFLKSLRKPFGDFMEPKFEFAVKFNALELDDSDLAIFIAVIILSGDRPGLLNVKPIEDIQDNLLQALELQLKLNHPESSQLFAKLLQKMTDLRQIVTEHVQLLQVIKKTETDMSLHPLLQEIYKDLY

>  <smiles.str>
Cc1c(C)n(Cc2ccc(-c3ccc(Cl)c(O[C@H](C)C(=O)O)c3)cc2)c2ccc(C(=O)N[C@@H](C)c3ccc(C(C)(C)C)cc3)cc12

>  <system.tested>
Peroxisome proliferator-activated receptor gamma (Homo sapiens, UniProt P37231)

>  <unit.abbreviation>
µM

>  <IC50>
15

$$$$
